# reported OD 450 nm; entries follow
Target: SARS-CoV-2 Spike (S) trimer (SARS-CoV-2), P0DTC2
Test: ELISA on coated S trimer, 1:50
Details: remark: other sources report otherwise
experimental_readout: OD 450 nm

AB-009202 (antibody) chain 1: QVQLVESGGGVVQPGRSLRLSCAASGFTFSSYGMHWVRQAPGKGLEWVAVIWYDGSNKYYADSVKGRFTISRDNSKNTLYLQMNSLRAEDTAVYYCARDGGPEYYFDYWGQGTLVTVSS chain 2: SYELTQPPSVSVSPGQTARITCSGDALPKQYAYWYQQKPGQAPVLVIYKDSERPSGIPERFSGSSSGTTVTLTISGVQAEDEADYYCQSADSSGTYNVVFGGGTKLTVL: 1.99 OD
AB-009174 (antibody) chain 1: QVQLQQWGAGLLKPSETLSLTCAVYGESFSGYYWNWIRQPPGKGLEWIGEIDQSGSTNYNPSLKSRVTISVDTSKNQFSLKLTSVTAADTAVYYCARVSGRMQLWLRAGYMDVWDKGTTVTVSS chain 2: QSALTQPASVSGSPGQSITISCTGTSSDVGRYNYVSWYQQHPGKAPKLMIYEVSNRPSGVSNRFSGSKSGNTASLTISGLQAEDEADYYCSSYTTSSTRVFGGGTKLTVL: 0.154 OD
AB-009231 (antibody) chain 1: EVQLVESGGGLVQPGGSLRLSCAASGFTFSSYWMSWVRQAPGKGLEWVANIKQDGSEKYYVDSVKGRFTISRDNAKNSLYLQMNSLRAEDTAVYYCARVSMRFLEWSFYYYYYMDVWGKGTTVTVSS chain 2: SSELTQDPAVSVALGQTVRITCQGDSLRSYYASWYQQKPGQAPVLVIYGKNNRPSGIPDRFSGSSSGNTASLTITGAQAEDEADYYCNSRDSSGNHLGVVFGGGTKLTVL: 0.46 OD
